# Tested on: 786-O
# ASSAY_TEXT: Euclidean distance of Cell Painting phenotypic profile (signed KS, 77 features) to DMSO centroid (dimensionless distance); 5 or 10 uM (library dependent); higher = stronger phenotypic change vs DMSO (phenoactivity)
# CONDITION_DETAILS: 48 h
Counter-ions that a name gives are not always drawn.
Would you please tag the item y when its Euclidean distance is 1 or above, and n when it is below?

1) CC(=O)O[C@H]1C[C@@H]2CC[C@@H]3[C@H](CC[C@@]4(C)[C@H]3C[C@H]([N+]3(C)CCCCC3)[C@@H]4OC(C)=O)[C@@]2(C)C[C@@H]1N1CCCCC1 [Vecuronium Bromide]
y
2) CCCN[C@H]1CCc2nc(N)sc2C1 [Pramipexole dihydrochloride]
n
3) Cc1ccc(-c2nc(N)nc3c2nnn3Cc2cccc(CO[C@H]3CCOC3)n2)o1
n
4) Cc1[nH]cnc1CN1CCc2c(c3ccccc3n2C)C1=O [Alosetron Hydrochloride]
y
5) CCc1cc(Nc2nccc(-c3c(-c4ccc(OC)c(C(=O)Nc5c(F)cccc5F)c4)nc4ccccn34)n2)c(OC)cc1N1CCC(N2CCN(S(C)(=O)=O)CC2)CC1
y
6) CN(C)CCC=C1c2ccccc2COc2ccccc21 [Doxepin HCl]
y
7) O=c1ccn([C@@H]2O[C@H](COP(=O)(O)OP(=O)(O)OP(=O)(O)O)[C@@H](O)[C@H]2O)c(=O)[nH]1 [UTP. Trisodium Salt]
y

Attribution: the supplement of paper PMC10127200
